Hello, the source for this data is patent US20250296959A1, in case you need it.

# target of assay: T1, 2Ig B7-H3 (UniProt Q5ZPR3-2 29-245, limits assumed)
# T1 construct: also called 2lg-B7-H3; B7-H3 isoform 2Ig
# T1 sequence (looked up): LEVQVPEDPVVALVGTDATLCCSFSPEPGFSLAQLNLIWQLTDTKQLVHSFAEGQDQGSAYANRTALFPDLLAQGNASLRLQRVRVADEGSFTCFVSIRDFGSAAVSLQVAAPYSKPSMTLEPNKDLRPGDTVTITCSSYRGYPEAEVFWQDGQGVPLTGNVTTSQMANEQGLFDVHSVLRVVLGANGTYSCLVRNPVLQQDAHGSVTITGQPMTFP
# test name: SPR, 37C
Positions of bridges follow the written chain, without caps; N, C: chain ends. Non-standard residues stand in square brackets, D forms with d. *: point of attachment. DOTA = O=C(O)CN1CCN(CC(=O)O)CCN(CC(=O)*)CCN(CC(=O)O)CC1; Trp(5-F) = N[C@@H](Cc1c[nH]c2ccc(F)cc12)C(=O)O; Pro(cis-4-F) = O=C(O)[C@@H]1C[C@H](F)CN1; 4Pal = N[C@@H](Cc1ccncc1)C(=O)O; hLeu = CC(C)CC[C@H](N)C(=O)O
property: Kd (µM)
Respond with the bare value in µM.

Recorded Kd of Ac-[hLeu]YCIGK(DOTA)[4Pal]DVYC[Trp(5-F)]F[Pro(cis-4-F)]-NH2 (disulfide 3-11) [Cpd 268] , please.
7
